Attribution: ChEMBL document CHEMBL1687893

Below, each entry is listed with its recorded inhibition (INH).
- Test system: Mus musculus
- measurement-description: Antiinflammatory activity against xylene-induced ear edema in Kunming mouse assessed as reduction in ear swelling thickness at 100 mg, ip administered 2 hrs post challenge measured after 30 mins
- Type: functional
measurement-name: inhibition (INH) (%)

1. Cc1cccc(C(=O)OCC(=O)c2c(-c3ccc(Cl)cc3)c(-c3ccccc3)c3n2CC(C)(C)C3)c1 50.7
2. Cc1ccc(C(=O)OCC(=O)c2c(-c3ccc(Cl)cc3)c(-c3ccccc3)c3n2CC(C)(C)C3)cc1 21
3. CC1(C)Cc2c(-c3ccccc3)c(-c3ccc(Cl)cc3)c(C(=O)COC(=O)Cc3ccc(Cl)cc3)n2C1 37
4. CC1(C)Cc2c(-c3ccccc3)c(-c3ccc(Cl)cc3)c(C(=O)COC(=O)c3ccccc3O)n2C1 14.5
